measured_on: human α2δ-1 subunit of Cav2.2 calcium channel (Homo sapiens (Human), UniProt P54289)
Sequence (P54289 25-1103): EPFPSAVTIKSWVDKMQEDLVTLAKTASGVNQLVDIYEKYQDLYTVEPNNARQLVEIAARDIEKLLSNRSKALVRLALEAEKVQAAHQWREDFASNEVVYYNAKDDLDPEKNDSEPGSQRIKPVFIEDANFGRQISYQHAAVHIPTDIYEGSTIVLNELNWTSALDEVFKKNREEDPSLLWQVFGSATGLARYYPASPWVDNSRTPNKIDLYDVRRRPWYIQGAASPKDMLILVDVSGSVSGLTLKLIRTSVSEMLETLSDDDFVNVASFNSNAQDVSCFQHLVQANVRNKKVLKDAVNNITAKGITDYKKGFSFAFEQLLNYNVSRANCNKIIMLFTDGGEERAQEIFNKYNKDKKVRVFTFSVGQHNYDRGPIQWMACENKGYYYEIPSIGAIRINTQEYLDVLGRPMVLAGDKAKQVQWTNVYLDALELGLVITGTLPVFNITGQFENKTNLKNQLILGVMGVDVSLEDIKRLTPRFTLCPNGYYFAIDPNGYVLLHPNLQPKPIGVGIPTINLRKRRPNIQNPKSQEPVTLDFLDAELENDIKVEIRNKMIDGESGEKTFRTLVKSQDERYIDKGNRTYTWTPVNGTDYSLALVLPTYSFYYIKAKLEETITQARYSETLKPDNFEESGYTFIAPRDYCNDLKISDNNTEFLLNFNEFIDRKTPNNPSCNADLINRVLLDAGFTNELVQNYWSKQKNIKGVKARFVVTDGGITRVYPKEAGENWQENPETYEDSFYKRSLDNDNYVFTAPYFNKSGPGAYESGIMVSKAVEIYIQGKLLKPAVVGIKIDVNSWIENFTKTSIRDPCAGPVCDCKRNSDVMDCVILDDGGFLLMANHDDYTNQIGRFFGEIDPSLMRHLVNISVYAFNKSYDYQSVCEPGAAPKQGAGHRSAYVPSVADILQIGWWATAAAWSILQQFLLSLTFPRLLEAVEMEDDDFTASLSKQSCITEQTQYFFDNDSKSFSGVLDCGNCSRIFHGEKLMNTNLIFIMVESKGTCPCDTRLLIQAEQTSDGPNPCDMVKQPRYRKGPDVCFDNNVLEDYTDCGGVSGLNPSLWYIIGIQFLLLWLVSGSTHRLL
experiment_description: Binding assay to human α2δ-1 subunit of Cav2.2 calcium channel ([3H]-Gabapentin)
recorded_conditions: Table 2, dual compounds; [3H]-Gabapentin binding; read-out: Ki (nM) α2δ-1
measured_quantity: Ki

Take a look at these entries with their results.
CNCCC(OCc1cccc(N2CCN(C)c3nc(C(F)(F)F)ncc3C2=O)c1)c1ccccc1 (centres unmarked) [Example 322]	> 3000 nM
CNCC[C@@H](OCc1cccc(N2CCN(C)c3nc(OC)ncc3C2=O)c1)c1ccccc1 [Example 204]	500 to 3000 nM
CCNc1ncc2c(n1)N(C)CCN(c1cccc(-c3nnc(CN4CCC(c5cccc(O)c5)(N(C)C)CC4)o3)c1)C2=O [Example 442]	< 100 nM

Recorded Ki of CCNc1ncc2c(n1)N(C)CCN(c1cccc(-n3cnc(CN(C)CCc4ccccc4)c3)c1)C2=O [Example 254] , please.
500 to 3000 nM

What about CCNc1ncc2c(n1)N(C)CCN(c1cccc(OC(CNC)c3ccccc3)c1)C2=O (centres unmarked) [Example 154] ?
500 to 3000 nM

What about CCNc1ncc2c(n1)N(C)CCN(c1cccc(-n3cc(CN4CCC(c5ccccc5)CC4)nn3)c1)C2=O [Example 278] ?
500 to 3000 nM

What about CNCC[C@H](Oc1ccc(CN2CCN(C)c3ccncc3C2=O)cc1)c1cccs1 [Example 382] ?
100 to 500 nM

What about CNCC[C@@H](OCc1cccc(N2CCN(C)c3nc(N(C)Cc4cccnc4)ncc3C2=O)c1)c1ccccc1 [Example 342] ?
100 to 500 nM

What about CCc1ncc2c(n1)N(C)CCN(c1cccc(COC(CCNC)c3ccccc3)c1)C2=O (centres unmarked) [Example 354] ?
500 to 3000 nM

What about CCNc1ncc2c(n1)N(C)CCN(c1cccc(-n3cnc(CN(C)Cc4ccccc4)c3)c1)C2=O [Example 253] ?
100 to 500 nM

What about CNCCC(OCc1ccc(N2CCN(C)c3nc(C)ncc3C2=O)cc1)c1ccccc1 (centres unmarked) [Example 353] ?
> 3000 nM

Source of measurements: patent US10590140B2
